Attribute: OD450 at 0.001 nM antibody
molecular target: T1, murine GPC3-his protein (Sino Biological, Cat. No. 50989-M08B) (murine, UniProt Q8CFZ4 25-558); test: ELISA, coated murine GPC3-His;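 further: antigen coated on plates at 1 µg/mL, test antibody bound for 2 h at 37 °C, detected with HRP-conjugated secondary antibody and TMB substrate after acid stop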
T1 construct: Bought protein; also called murine GPC3 protein
T1 sequence (Q8CFZ4 25-558 limits assumed): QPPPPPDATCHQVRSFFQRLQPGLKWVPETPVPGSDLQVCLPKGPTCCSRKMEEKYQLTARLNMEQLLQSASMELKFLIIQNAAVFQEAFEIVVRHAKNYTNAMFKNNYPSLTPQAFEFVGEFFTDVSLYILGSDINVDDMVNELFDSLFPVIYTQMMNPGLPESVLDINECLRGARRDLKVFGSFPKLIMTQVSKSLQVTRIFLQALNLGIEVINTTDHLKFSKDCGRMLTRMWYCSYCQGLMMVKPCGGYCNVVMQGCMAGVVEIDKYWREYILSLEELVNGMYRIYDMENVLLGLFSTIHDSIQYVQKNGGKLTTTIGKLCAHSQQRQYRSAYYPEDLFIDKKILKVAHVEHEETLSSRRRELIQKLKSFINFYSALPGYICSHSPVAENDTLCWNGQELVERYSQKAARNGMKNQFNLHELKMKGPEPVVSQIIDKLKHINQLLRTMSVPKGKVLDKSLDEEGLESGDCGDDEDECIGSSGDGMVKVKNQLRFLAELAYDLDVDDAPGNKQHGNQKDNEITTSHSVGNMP
valueKind: OD450 at 0.001 nM antibody (OD450 nm)

[[record]]
binder = "F1.145.22 human-murine chimeric antibody (antibody, human IgG1, kappa, V domains shown) VH: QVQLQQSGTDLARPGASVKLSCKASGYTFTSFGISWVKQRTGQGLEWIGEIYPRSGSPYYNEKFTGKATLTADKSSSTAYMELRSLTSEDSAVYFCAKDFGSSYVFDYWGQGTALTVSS VL: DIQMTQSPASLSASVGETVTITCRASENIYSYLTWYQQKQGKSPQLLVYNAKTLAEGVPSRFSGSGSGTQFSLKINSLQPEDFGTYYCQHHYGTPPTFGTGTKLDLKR"
valuekind = "OD450 at 0.001 nM antibody"
resultnumber = 0.06

[[record]]
binder = "F1.83.6 human-murine chimeric antibody (antibody, human IgG1, kappa, V domains shown) VH: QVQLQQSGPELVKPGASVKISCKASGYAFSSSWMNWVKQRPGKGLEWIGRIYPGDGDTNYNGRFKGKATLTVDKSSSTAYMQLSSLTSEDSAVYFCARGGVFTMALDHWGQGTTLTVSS VL: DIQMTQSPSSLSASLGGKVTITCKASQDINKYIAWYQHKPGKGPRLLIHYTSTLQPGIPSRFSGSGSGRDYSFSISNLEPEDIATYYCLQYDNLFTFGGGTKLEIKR"
valuekind = "OD450 at 0.001 nM antibody"
resultnumber = 0.05

[[record]]
binder = "F2.154.1 human-murine chimeric antibody (antibody, human IgG1, kappa, V domains shown) VH: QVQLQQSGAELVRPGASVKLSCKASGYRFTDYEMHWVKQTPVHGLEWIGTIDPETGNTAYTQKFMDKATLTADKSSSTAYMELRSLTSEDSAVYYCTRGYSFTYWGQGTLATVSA VL: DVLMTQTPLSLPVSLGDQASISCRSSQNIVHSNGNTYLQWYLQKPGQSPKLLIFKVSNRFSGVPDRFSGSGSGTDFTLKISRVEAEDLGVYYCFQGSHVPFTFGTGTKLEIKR"
valuekind = "OD450 at 0.001 nM antibody"
resultnumber = 0.05

[[record]]
binder = "F2.39.2 human-murine chimeric antibody (antibody, human IgG1, kappa, V domains shown) VH: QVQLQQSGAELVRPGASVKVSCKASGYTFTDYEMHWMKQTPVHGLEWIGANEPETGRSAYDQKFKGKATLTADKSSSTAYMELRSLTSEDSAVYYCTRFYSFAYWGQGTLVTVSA VL: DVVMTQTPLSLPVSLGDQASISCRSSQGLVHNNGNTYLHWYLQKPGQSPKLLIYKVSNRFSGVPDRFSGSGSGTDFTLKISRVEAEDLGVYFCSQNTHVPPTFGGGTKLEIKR"
valuekind = "OD450 at 0.001 nM antibody"
resultnumber = 0.06

[[record]]
binder = "F1.3.9 human-murine chimeric antibody (antibody, human IgG1, kappa, V domains shown) VH: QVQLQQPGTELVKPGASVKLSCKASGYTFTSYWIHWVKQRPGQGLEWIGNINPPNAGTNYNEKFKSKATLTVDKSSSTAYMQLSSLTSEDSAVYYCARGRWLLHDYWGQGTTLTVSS VL: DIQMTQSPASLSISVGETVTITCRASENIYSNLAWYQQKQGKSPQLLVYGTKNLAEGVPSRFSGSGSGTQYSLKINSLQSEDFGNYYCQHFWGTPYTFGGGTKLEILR"
valuekind = "OD450 at 0.001 nM antibody"
resultnumber = 0.04

